Below are IC50 values recorded for Potassium channel subfamily K member 9 (Homo sapiens).

COc1ccc(CSc2nnc(-c3ccco3)n2C(C)C2CC3CCC2C3)cc1OC (centres undefined)	547 nM
C[C@H](C1CCCCC1)n1c(-c2ccccc2F)n[nH]c1=S	683 nM
CC(C1CC2CCC1C2)n1c(-c2ccco2)nn(CCc2ccncc2)c1=S (centres undefined)	223 nM
CC(C1CC2CCC1C2)n1c(SCCc2ccccn2)nnc1-c1ccco1 (centres undefined)	3090 nM
COc1cccc(-c2n[nH]c(=S)n2[C@H](C)[C@@H]2CC3CC[C@H]2C3)c1	467 nM

Now for another entry.
IN: Suppose we examine the molecule COc1cccc(-c2n[nH]c(=S)n2[C@H](C)C2CCCCC2)c1 ; what IC50 value has been reported?
OUT: 3420 nM

====

Biological target: Potassium channel subfamily K member 9 (Homo sapiens) (UniProt Q9NPC2)
Sequence (Q9NPC2 whole entry, looked up): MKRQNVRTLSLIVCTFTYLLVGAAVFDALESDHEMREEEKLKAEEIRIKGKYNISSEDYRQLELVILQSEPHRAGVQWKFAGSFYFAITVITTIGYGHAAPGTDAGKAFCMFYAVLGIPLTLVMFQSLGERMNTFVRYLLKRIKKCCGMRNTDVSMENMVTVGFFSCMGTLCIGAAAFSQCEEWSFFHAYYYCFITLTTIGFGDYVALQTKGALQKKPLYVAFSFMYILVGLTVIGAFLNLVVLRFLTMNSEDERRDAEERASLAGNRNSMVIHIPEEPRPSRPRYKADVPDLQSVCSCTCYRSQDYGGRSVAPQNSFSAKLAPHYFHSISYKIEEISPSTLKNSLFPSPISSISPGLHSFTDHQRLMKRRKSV
Test: KCNK9 two-pore potassium channel inhibitors, SAR follow-up, cell-based, round 4 (AID 623887)
Details: HEK293-KCNK9 thallium flux, FluxOR fluorescence
parameter: IC50

A selection of reference data follows.
COc1ccc(C(=O)CCSc2nnc(-c3ccco3)n2C(C)C2CC3CCC2C3)cc1OC (stereo not drawn)	663 nM
C[C@H]([C@@H]1CC2CC[C@H]1C2)n1c(-c2ccco2)n[nH]c1=S	53 nM

Now for another entry.
IN: Suppose we examine the compound COc1cccc(-c2nnc(SSc3nnc(-c4cccc(OC)c4)n3C(C)C3CC4CCC3C4)n2C(C)C2CC3CCC2C3)c1 (stereo not drawn) ; what IC50 value has been reported?
OUT: 28000 nM

The values you see were collected from PubChem BioAssay AID623887.
